# credit: ChEMBL document CHEMBL3112429

- EXPERIMENT DESCRIPTION: Elimination half life in Sprague-Dawley rat at 1 mg/kg, iv administered in 60% PEG200
- Format: ADME, organism-based
- Design: dose 1 mg/kg, route intravenous
- CONDITION DESCRIPTION: in vivo, read-out: beta t1/2 (converted)
ENDPOINT LABEL: half-life (h)
Please reply with the bare figure in h and do not write the unit itself.

| SMILES REPRESENTATION | OBSERVED RESULT |
| --- | --- |
| N#Cc1cc(Cl)cc(Oc2c(C(F)(F)F)ccn(Cc3n[nH]c4ncccc34)c2=O)c1 | 7 |

The record that follows has no half-life shown yet.
# lookup: half-life of "N#Cc1cc(Cl)cc(Oc2c(Cl)ccn(Cc3n[nH]c4ncccc34)c2=O)c1"
2.2

----------
- EXPERIMENT DESCRIPTION: Oral bioavailability in Beagle dog at 1 mg/kg administered in 10% tween as ball-milled particles
- Assay type: ADME, organism-based, Canis lupus familiaris
- CONDITION DESCRIPTION: in vivo
ENDPOINT LABEL: bioavailability (%)
Please reply with the bare figure in % and do not write the unit itself.

# lookup: bioavailability of "Cn1c(Cn2ccc(C(F)(F)F)c(Oc3cc(Cl)cc(C#N)c3)c2=O)n[nH]c1=O"
52

----------
- Test system: Human immunodeficiency virus
- EXPERIMENT DESCRIPTION: Antiviral activity against wild-type HIV infected in human MT4 cells assessed as inhibition of viral infection in presence of 50% normal human serum
- Type: functional
- CONDITION DESCRIPTION: Human immunodeficiency virus 1, MT4
ENDPOINT LABEL: IC95 (nM)
Please reply with the bare figure in nM and do not write the unit itself.

Answered cases to consult:
| SMILES REPRESENTATION | MEASURE UNIT | IC95 |
| --- | --- | --- |
| Cc1ncsc1Cn1ccc(C(F)(F)F)c(Oc2cc(Cl)cc(C#N)c2)c1=O | nM | 100 |
| Cn1ncnc1Cn1ccc(C(F)(F)F)c(Oc2cc(Cl)cc(C#N)c2)c1=O | nM | 150 |
| N#Cc1cc(Cl)cc(Oc2c(Br)ccn(Cc3n[nH]c4ncccc34)c2=O)c1 | nM | 4 |

# lookup: IC95 of "N#Cc1cc(Cl)cc(Oc2c(C(F)(F)F)ccn(Cc3n[nH]c4ncccc34)c2=O)c1"
17

# lookup: IC95 of "Cc1cc(/C=C/C#N)cc(C)c1Nc1ccnc(Nc2ccc(C#N)cc2)n1"
36

# lookup: IC95 of "N#Cc1cc(Cl)cc(Oc2c(C(F)(F)F)ccn(Cc3noc4ccccc34)c2=O)c1"
110

----------
- EXPERIMENT DESCRIPTION: Aqueous equilibrium solubility of the compound at pH 4 after 24 hrs incubated in absence of light by HPLC analysis
- Format: physicochemical
- CONDITION DESCRIPTION: aqueous medium
ENDPOINT LABEL: solubility thermodynamic at 24 h

# lookup: solubility thermodynamic at 24 h of "N#Cc1cc(Cl)cc(Oc2c(C(F)(F)F)ccn(Cc3n[nH]c4ncccc34)c2=O)c1"
< 0.1 µg/mL

----------
- Test system: Human immunodeficiency virus
- EXPERIMENT DESCRIPTION: Antiviral activity against wild-type HIV infected in human MT4 cells assessed as inhibition of viral infection in presence of 50% normal human serum
- Assay type: functional
- CONDITION DESCRIPTION: Human immunodeficiency virus 1, MT4
Each record is given MET if its reported IC95 is strictly below 20 nM. Records at or above 20 nM are given NOT MET.

Solved cases below.
| SMILES REPRESENTATION | LABEL VALUE |
| --- | --- |
| CC(F)(F)c1ccn(Cc2n[nH]c3ncccc23)c(=O)c1Oc1cc(Cl)cc(C#N)c1 | MET |
| N#Cc1cc(Cl)cc(Oc2c(C(F)(F)F)ccn(Cc3n[nH]c4cnccc34)c2=O)c1 | NOT MET |

Dear reviewer, please state whether "N#Cc1cc(Cl)cc(Oc2c(C(F)(F)F)ccn(Cc3ccc4ccccc4n3)c2=O)c1" has IC95 strictly beneath 20 nM.
NOT MET

Dear reviewer, please state whether "CSc1ccn(Cc2n[nH]c3ncccc23)c(=O)c1Oc1cc(Cl)cc(C#N)c1" has IC95 strictly beneath 20 nM.
MET

Dear reviewer, please state whether "Cn1c(Cn2ccc(C(F)(F)F)c(Oc3cc(Cl)cc(C#N)c3)c2=O)n[nH]c1=O" has IC95 strictly beneath 20 nM.
MET

Dear reviewer, please state whether "N#Cc1cc(Cl)cc(Oc2c(C(F)(F)F)ccn(Cc3n[nH]c4nc(N5CC(CN)C5)ccc34)c2=O)c1" has IC95 strictly beneath 20 nM.
NOT MET

Dear reviewer, please state whether "N#Cc1cc(Cl)cc(Oc2c(C3CC3)ccn(Cc3n[nH]c4ncccc34)c2=O)c1" has IC95 strictly beneath 20 nM.
MET

----------
- Test system: Human immunodeficiency virus
- EXPERIMENT DESCRIPTION: Antiviral activity against wild-type HIV infected in human MT4 cells assessed as inhibition of viral infection in presence of 50% normal human serum
- Assay type: functional
- CONDITION DESCRIPTION: Human immunodeficiency virus 1, MT4
ENDPOINT LABEL: IC95 (nM)
Please reply with the bare figure in nM and do not write the unit itself.

Answered cases to consult:
| SMILES REPRESENTATION | ENDPOINT LABEL | OBSERVED RESULT |
| --- | --- | --- |
| N#Cc1cc(Cl)cc(Oc2c(C(F)(F)F)ccn(Cc3n[nH]c4nc(C(N)=O)ccc34)c2=O)c1 | IC95 | 21 |
| N#Cc1cc(Cl)cc(Oc2c(C(F)(F)F)ccn(Cc3n[nH]c4cncc(F)c34)c2=O)c1 | IC95 | 76 |
| N#Cc1cc(Cl)cc(Oc2c(C(F)(F)F)ccn(Cc3n[nH]c4ncc(F)cc34)c2=O)c1 | IC95 | 42 |
| N#Cc1cc(Cl)cc(Oc2c(C(F)(F)F)ccn(Cc3n[nH]c4ccccc34)c2=O)c1 | IC95 | 53 |

The record that follows has no IC95 shown yet.
# lookup: IC95 of "Cc1ccn(Cc2n[nH]c3ncccc23)c(=O)c1Oc1cc(Cl)cc(C#N)c1"
12
